Biological target: URAT-1 transporter (Homo sapiens)
Construct: expressed in transfected cells
Assay: URAT-1 inhibitor activity: [14C]-uric acid uptake into CHO-URAT1(L)GFP#8 (CHO#8) cells, scintillation proximity
Assay type: cell-based
// reported IC50 for each item listed
assayMetric: IC50 (nM)

smilesCode: N#Cc1cc(S(=O)(=O)Nc2ncc(F)s2)ccc1Oc1cc(C(F)(F)F)cc(C(F)(F)F)c1
assaySystem: URAT-1 transporter (Homo sapiens)
unitName: nM
qual: =
numericResult: 3470
//
smilesCode: COc1cccc(Cl)c1Oc1ccc(S(=O)(=O)Nc2ncns2)cc1C#N
assaySystem: URAT-1 transporter (Homo sapiens)
unitName: nM
qual: =
numericResult: 2250
//
smilesCode: COc1ccc(F)c(Oc2cc(F)c(S(=O)(=O)Nc3nncs3)cc2Cl)c1
assaySystem: URAT-1 transporter (Homo sapiens)
unitName: nM
qual: =
numericResult: 2180
//
smilesCode: N#Cc1cc(S(=O)(=O)Nc2ncc(F)s2)ccc1Oc1ccc(C#N)c(C(F)(F)F)c1
assaySystem: URAT-1 transporter (Homo sapiens)
unitName: nM
qual: >
numericResult: 7300
//
smilesCode: CC(C)(O)c1cccc(Oc2ccc(S(=O)(=O)Nc3ncc(F)s3)cc2C#N)c1
assaySystem: URAT-1 transporter (Homo sapiens)
unitName: nM
qual: =
numericResult: 1730
//
smilesCode: N#Cc1cc(S(=O)(=O)Nc2nncs2)ccc1Oc1ccc(CO)c(Cl)c1
assaySystem: URAT-1 transporter (Homo sapiens)
unitName: nM
qual: =
numericResult: 9
//
smilesCode: Cc1nnc(NS(=O)(=O)c2ccc(Oc3ccc(C#N)c(Cl)c3)c(C#N)c2)s1
assaySystem: URAT-1 transporter (Homo sapiens)
unitName: nM
qual: =
numericResult: 484
//
smilesCode: CCc1cc(F)ccc1Oc1ccc(S(=O)(=O)Nc2ncns2)c(C#N)c1
assaySystem: URAT-1 transporter (Homo sapiens)
unitName: nM
qual: =
numericResult: 2120

* * *

Biological target: URAT-1 transporter (Homo sapiens, UniProt Q96S37)
Construct: expressed in transfected cells
Sequence (Q96S37 with tags, fused parts or gaps): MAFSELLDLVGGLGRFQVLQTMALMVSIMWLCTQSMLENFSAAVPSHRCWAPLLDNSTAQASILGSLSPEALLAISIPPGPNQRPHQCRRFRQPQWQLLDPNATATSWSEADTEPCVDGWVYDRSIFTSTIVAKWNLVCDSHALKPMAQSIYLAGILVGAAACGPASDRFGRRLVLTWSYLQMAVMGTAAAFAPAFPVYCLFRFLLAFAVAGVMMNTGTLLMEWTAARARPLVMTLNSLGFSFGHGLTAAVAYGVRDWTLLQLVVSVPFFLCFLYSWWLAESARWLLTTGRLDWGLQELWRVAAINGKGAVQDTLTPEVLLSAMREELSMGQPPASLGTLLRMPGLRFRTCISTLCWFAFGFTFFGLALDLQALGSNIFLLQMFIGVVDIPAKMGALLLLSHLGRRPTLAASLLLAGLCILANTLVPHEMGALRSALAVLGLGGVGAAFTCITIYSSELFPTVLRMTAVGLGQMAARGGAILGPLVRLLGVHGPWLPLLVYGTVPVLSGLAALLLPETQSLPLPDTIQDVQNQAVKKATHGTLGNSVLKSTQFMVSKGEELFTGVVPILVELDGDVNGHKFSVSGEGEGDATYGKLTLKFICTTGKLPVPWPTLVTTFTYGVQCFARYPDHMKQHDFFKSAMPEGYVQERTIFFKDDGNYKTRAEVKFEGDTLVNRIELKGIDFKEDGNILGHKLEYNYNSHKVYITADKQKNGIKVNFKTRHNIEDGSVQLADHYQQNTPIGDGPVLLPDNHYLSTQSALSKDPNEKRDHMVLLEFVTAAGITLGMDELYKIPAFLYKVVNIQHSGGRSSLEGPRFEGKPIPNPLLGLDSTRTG
Test: URAT-1 inhibitor activity: [14C]-uric acid uptake into CHO-URAT1(L)GFP#8 (CHO#8) cells, scintillation proximity
Type: cell-based
// reported IC50 for each item listed

smilesCode: CCc1ncccc1Oc1cc(F)c(S(=O)(=O)Nc2nncs2)cc1Cl
IC50: > 7.19 µM
--
smilesCode: N#Cc1cc(S(=O)(=O)Nc2ncc(F)s2)ccc1Oc1ccc(Cl)cc1F
IC50: > 5.31 µM
--
smilesCode: CC(C)c1cccc(Oc2cc(F)c(S(=O)(=O)Nc3ncc(F)s3)cc2F)c1
IC50: > 8.47 µM

* * *

Biological target: URAT-1 transporter (Homo sapiens, UniProt Q96S37)
Construct: expressed in transfected cells
Test: URAT-1 inhibitor activity: [14C]-uric acid uptake into CHO-URAT1(L)GFP#8 (CHO#8) cells, scintillation proximity
Format: cell-based
Counter-ions that a name gives are not always drawn.
Dear colleague, classification is by IC50, with ranges listed here: low: < 800 nM; middle: ≥ 800 nM and < 3000 nM; high: ≥ 3000 nM

molecule: CCc1ncccc1Oc1ccc(S(=O)(=O)Nc2ncns2)cc1C#N [compound 273, trifluoroacetic acid salt]
class: high
//
molecule: O=S(=O)(Nc1cscn1)c1ccc(Oc2ccc(F)c(F)c2)c(I)c1 [compound 241]
class: high
//
molecule: N#Cc1cc(S(=O)(=O)Nc2ncc(F)s2)ccc1Oc1cccc(Cl)c1 [Example 110]
class: high
//
molecule: N#Cc1ccc(Oc2ccc(S(=O)(=O)Nc3ncns3)cc2C#N)c(OC(F)F)c1 [Example 23]
class: high
//
molecule: CC(C)c1ccc(Oc2ccc(S(=O)(=O)Nc3ncc(F)s3)cc2C#N)cc1 [Example 103]
class: high
//
molecule: N#Cc1ccc(Oc2cc(F)c(S(=O)(=O)Nc3cscn3)cc2Cl)cc1Cl [compound 239]
class: high
//
molecule: COc1ccncc1Oc1ccc(S(=O)(=O)Nc2ncns2)cc1C#N [Example 18]
class: high
//
molecule: COc1ccc(Oc2ccc(S(=O)(=O)Nc3ncns3)cc2C#N)cn1 [Example 20]
class: high
//
molecule: Cc1ccc(F)cc1Oc1ccc(S(=O)(=O)Nc2ncns2)cc1C#N [Example 41]
class: middle
//
molecule: CC(C)(C)c1ccc(Oc2ccc(S(=O)(=O)Nc3ncns3)cc2C#N)c(Cl)c1 [Example 38]
class: high
//
molecule: N#Cc1cc(S(=O)(=O)Nc2ncns2)ccc1Oc1ccc(Cl)cc1OC1CCC1 [Example 30]
class: low
//
molecule: O=S(=O)(Nc1nncs1)c1ccc(Oc2ccc(F)c(F)c2)c(Cl)c1 [compound 204]
class: low
//
molecule: N#Cc1cc(S(=O)(=O)Nc2nccs2)ccc1Oc1ccc(OCC(F)(F)F)nc1 [Example 190]
class: high
//
molecule: Cc1ccc(F)c(Oc2ccc(S(=O)(=O)Nc3ncc(F)s3)cc2C#N)c1F [Example 123]
class: middle
//
molecule: O=S(=O)(Nc1cscn1)c1cc(F)c(Oc2ccc(F)c(F)c2)cc1F [compound 238]
class: high
//
molecule: COc1cc(Cl)ccc1Oc1ccc(S(=O)(=O)Nc2cscn2)c(Cl)c1 [Example 81]
class: high
//
molecule: COc1c(F)ccc(Oc2cc(F)c(S(=O)(=O)Nc3nncs3)cc2Cl)c1Cl [compound 329]
class: low
//
molecule: COc1ccc(C)cc1Oc1ccc(S(=O)(=O)Nc2ncns2)cc1C#N [compound 284]
class: middle
//
molecule: COc1ccccc1Oc1ccc(S(=O)(=O)Nc2ncns2)cc1C#N [compound 271]
class: high
//
molecule: COc1cc(Cl)cc(Cl)c1Oc1ccc(S(=O)(=O)Nc2ncns2)cc1C#N [Example 26]
class: middle
//
molecule: N#Cc1cc(S(=O)(=O)Nc2ncc(F)s2)ccc1Oc1ccccc1F [Example 104]
class: middle
//
molecule: CC(C)Oc1ncc(Oc2ccc(S(=O)(=O)Nc3nncs3)cc2C#N)cc1Cl [Example 333]
class: high
//
molecule: O=S(=O)(Nc1ncns1)c1cc(F)c(Oc2ccc(F)c(F)c2)cc1F [compound 196]
class: middle
//
molecule: CNc1ccc(Oc2ccc(S(=O)(=O)Nc3nccs3)cc2C#N)cn1 [Example 187]
class: high
//
molecule: COc1cc(C)cc(Oc2cc(F)c(S(=O)(=O)Nc3nncs3)cc2Cl)c1 [compound 301]
class: low
